System: Plasmodium berghei
Experiment: Antimalarial activity against Plasmodium berghei infected in mouse assessed as change in mean survival time at 10 mg/kg, sc administered as single dose 72 hrs after parasite infection (reference value: 6.1 days)
Assay type: functional
Conditions: route subcutaneous
readout-label: MST (days)
Note: unit days is implicit; provide only the numeric part.

Lab note: need MST for CCCCN(CCCC)CCC(O)c1cc(-c2ccc(Cl)cc2)cc2c(Cl)cc(Cl)cc12.Cl (centres undefined) on Plasmodium berghei, anyone have it?
2.9

Lab note: need MST for CCCCN(CCCC)CC(O)c1cc(-c2ccc(Cl)cc2)cc2c(Cl)cc(Cl)cc12.Cl (centres undefined) on Plasmodium berghei, anyone have it?
7.9

Lab note: need MST for CC(=O)O.OC(c1cc(-c2ccc(Cl)cc2)cc2c(Cl)cc(Cl)cc12)C1CCCCN1 (centres undefined) on Plasmodium berghei, anyone have it?
0.5

Lab note: need MST for Cl.OC(CC1CCCCN1)c1cc(-c2ccc(Cl)cc2)cc2c(Cl)cc(Cl)cc12 (centres undefined) on Plasmodium berghei, anyone have it?
3.6
